System: PPC-1
PROTOCOL DESCRIPTION: Cell viability SRB assay, 96 h
Format: cell-based
CONDITION CONTEXT: Homo sapiens, PPC-1, 96 h
Protocol: Cell viability (LNCaP, PC-3 prostate, DU145, PPC-1, and TSU-Pr1 prostate cancer cell lines, HT-29 colon cancer cell line, and MCF-7 breast cancer cell line) was quantitated using the sulforhodamine B (SRB) assay after 96 h coincubation with different concentrations of compound in 96-well plates. Cell viability of leukemia cells (K562 and doxorubicin-resistant K562/Dox) was quantitated by MTT assay after 96 h coincubation with different concentrations of compound in 96-well plates. […]
pIC50: −log10 of the molar value.
I would appreciate it if you labelled entries True when pIC50 is 6 or higher, otherwise False.

Please review the following examples before continuing.
>  <COMPOUND>
COc1cc(-c2cccc(C(O)c3cc4ccccc4n3S(=O)(=O)c3ccccc3)c2)cc(OC)c1OC (centres unmarked) [Compound 63]

>  <CATEGORY LABEL>
False

$$$$
>  <COMPOUND>
COc1cc(C(=O)c2cccc(-c3cc4ccccc4n3S(=O)(=O)c3ccccc3)c2)cc(OC)c1OC [Compound 67]

>  <CATEGORY LABEL>
False

$$$$

Prompt line: Does the reported pIC50 for COc1cc(-c2cccc(C(=O)c3cc4ccccc4n3S(=O)(=O)c3ccccc3)c2)cc(OC)c1OC [Compound 64] fall at or above the 6 mark?
Response line: False

Prompt line: Quick check, pIC50 >= 6? O=S(=O)(c1ccccc1)n1cc(B(O)O)c2ccccc21 [Compound 129, reference compound]
Response line: False

Prompt line: Threshold query (pIC50 >= 6) on O=C(c1ccc(F)cc1)c1cccc(-c2ccc3[nH]ccc3c2)c1 [Compound 125]
Response line: True

Prompt line: Dear colleague, could you confirm whether COc1cc(C(=O)c2cccc(-c3cc4cc(F)ccc4[nH]3)c2)cc(OC)c1OC [Compound 90] has pIC50 at or above 6?
Response line: True

Prompt line: Check this compound for pIC50 at or above 6: COc1cc(C(=O)c2cccc(-c3cc4ccccc4[nH]3)c2)cc(OC)c1OC [Compound 68]
Response line: True

Prompt line: I'd appreciate it if you could say whether COc1cc(C(O)c2cccc(-c3cc4ccccc4[nH]3)c2)cc(OC)c1OC (centres unmarked) [Compound 66A] has pIC50 at least equal to 6.
Response line: False

Prompt line: Decide: is the reported value of pIC50 for c1cc(Cc2cc3ccccc3[nH]2)cc(-c2cc3ccccc3[nH]2)c1 [Compound 10] equal to or greater than 6?
Response line: False
